Origin of values: ChEMBL document CHEMBL1201862

system: UO-31; assay: NCI tumour cell line growth inhibition, 48 h
Calls of active or inactive are those of the source. No stated cut-off is given here; in the data, active = GI50 up to about 1.1 µM and inactive = higher.
Possible outcomes: true (1) for active, false (0) for inactive

Compound: CC(=O)NNc1nc(C)c(C(=O)NNC(=O)C(=O)Nc2c([N+](=O)[O-])ccc(C)c2C)s1
Label: false (0)

Compound: COc1ccccc1/C=N/N=C(\N)NO
Label: false (0)

Compound: CN(C)CCCNC(=O)CCNC(=O)c1cc(NC(=O)c2cc(NC(=O)c3cc(NC(=O)CCCNC(=O)c4cc(NC(=O)c5cc(NC(=O)c6nccn6C)cn5C)cn4C)cn3C)cn2C)cn1C
Label: false (0)

Compound: c1ccc2c(c1)[Se]c1ccccc1[Se]2
Label: false (0)

Compound: CN1C(=O)CC(=O)N1/C(=C/c1ccccc1)c1ccccc1
Label: false (0)

Compound: CC(=O)O.CN1CCN(CN2C(=O)C3C4C=CC(C3C2=O)C2C3C(=O)N(CN5CCN(C)CC5)C(=O)C3C42)CC1 (centres undefined)
Label: false (0)

Compound: COc1ccccc1N1C(=O)/C(=C/c2ccc(N(CCC#N)CCC#N)cc2C)N=C1c1cc([N+](=O)[O-])ccc1Cl
Label: false (0)

Compound: O=C(O)c1cc(O)c2c(c1)C([C@@H]1c3cccc(O)c3C(=O)c3c(O)cc(C(=O)O)cc31)c1cccc(O)c1C2=O (some centres undefined)
Label: false (0)

Compound: CN(C)CCNC(=O)c1cc(Cl)cc2cc3ccccc3nc12
Label: true (1)

###

Measured GI50 values are reported for all entries that follow.
system: Hs-578T; test: NCI tumour cell line growth inhibition, 48 h
Active and inactive are the calls of the source. No stated cut-off is given here; in the data, active = GI50 up to about 1.1 µM and inactive = higher.

Compound: COC(=O)NC(Nc1ccc(C)cc1)(C(F)(F)F)C(F)(F)F
Target Under Test: Hs-578T
GI50: > 100 µM (inactive)
//
Compound: CC1=C2C(=O)c3ccccc3C(=O)[C@H]2C[C@@H](N2CCCC2=O)O1
Target Under Test: Hs-578T
GI50: 94.8 µM (inactive)
//
Compound: CC1=NN(c2nc(N)nc(/C(C#N)=C/c3ccccc3O)n2)C(C)(C)C1
Target Under Test: Hs-578T
GI50: 16.3 µM (inactive)
//
Compound: CC(C)(C)OC(=O)NC1CC=CCC1NC(=O)OC(C)(C)C (centres undefined)
Target Under Test: Hs-578T
GI50: > 100 µM (inactive)
//
Compound: C[C@@H]1CC(=O)[C@@]2(C)[C@](O)(CCC3O[C@]32C)[C@@]12CC(c1ccoc1)OC2=O (some centres undefined)
Target Under Test: Hs-578T
GI50: 33.8 µM (inactive)
//
Compound: Sc1cnnc2ccc(Br)cc12
Target Under Test: Hs-578T
GI50: 57.3 µM (inactive)
//
Compound: CC1(C)SC2C(NC(=O)C(C(=O)O)c3ccccc3)C(=O)N2C1C(=O)O (centres undefined)
Target Under Test: Hs-578T
GI50: > 100 µM (inactive)
//
Compound: O=c1c(-c2ccc3c(c2)OCO3)coc2c3c(ccc12)OCO3
Target Under Test: Hs-578T
GI50: 22.3 µM (inactive)
//
Compound: COc1cc2oc(-c3ccc(O)cc3)c(OC3OC(C)C(O)C(O)C3O)c(=O)c2c(O)c1OC (centres undefined)
Target Under Test: Hs-578T
GI50: > 100 µM (inactive)

###

system: SNB-19; experiment: NCI tumour cell line growth inhibition, 48 h
Activity calls are given as the source filed them. No stated cut-off is given here; in the data, active = GI50 up to about 1.1 µM and inactive = higher.

Molecule: COC1=NN2C(OC)(c3ccccc3)c3c(-c4ccccc4)sc(-c4ccccc4)c3C2(c2ccccc2)S1 (stereo not given)
GI50: > 100 µM (inactive)
//
Molecule: COC(=O)C1C(O)C(C)C(O)C(C)(O)/C=C\C=C(C)C(=O)Nc2c(C)c(OC(C)=O)c3c(c2O)C(=O)C(C)=C2OCOC(=C23)C(C)=CC(C)(O)C(O)C(C)C1OC(C)=O (stereo not given)
GI50: 89.9 µM (inactive)
//
Molecule: Cc1cc(NC(=O)C2C3C=CC(O3)C2C(=O)O)no1 (stereo not given)
GI50: > 100 µM (inactive)
//
Molecule: CCOc1ncnc2ccc(Cl)c(I)c12
GI50: 89.1 µM (inactive)
//
Molecule: COc1ccccc1N1C(=O)/C(=C/c2ccc(N(CCC#N)CCC#N)cc2C)N=C1c1cc([N+](=O)[O-])ccc1Cl
GI50: > 100 µM (inactive)

###

The compounds below have reported GI50 for HCT-15.

Compound Smiles: COc1ccc(-n2cnc3c(NCC(=O)O)ncnc32)cc1
Target Under Test: HCT-15
GI50: > 100 µM
//
Compound Smiles: C=C[C@@]1(C)CC(=O)[C@]2(O)[C@@]3(C)[C@@H](OC(C)=O)CCC(C)(C)[C@@H]3[C@H](O)[C@H](OC(C)=O)[C@@]2(C)O1
Target Under Test: HCT-15
GI50: > 100 µM
//
Compound Smiles: Cc1ccnc2nc3[nH]c4ccccc4c3cc12
Target Under Test: HCT-15
GI50: > 100 µM

###

system: SK-OV-3; test: NCI tumour cell line growth inhibition, 48 h
The source made the active and inactive calls. Cut-off read from the data, not from the text of the source: active = GI50 up to about 1.1 µM and inactive = higher. Non-standard residues stand in square brackets, D forms with d. Residues, ends and D or L forms follow the SMILES beside them. ξ: configuration not given here. Pen = CC(C)(S)[C@H](N)C(=O)O; ξL = CC(C)CC(N)C(=O)O
Outcomes: label 1 for active, label 0 for inactive

Molecule: Cn1c(N)nc(-c2ccc(Cl)cc2)c1SSc1c(-c2ccc(Cl)cc2)nc(N)n1C
Label: label 0
//
Molecule: COc1cc2cnc3c4cc(OC)c(OC(C)C)cc4ccc3c2cc1OC
Label: label 0
//
Molecule: Cc1cn(CCCCCOC(=O)NC(CCCNC(=N)N)C(=O)O)c(=O)[nH]c1=O (stereo unspecified)
Label: label 0
//
Molecule: O=C1Nc2ccccc2/C1=C1/Nc2ccccc2/C1=N/OCCO
Label: label 1
//
Molecule: CN1C(=O)CC(=O)N1/C(=C/c1ccccc1)c1ccccc1
Label: label 0
//
Molecule: O=C(CC(=O)C(F)(F)F)c1csc2ccccc12
Label: label 0
//
Molecule: O=C(Nc1c(C(F)(F)F)cc(-c2ccccc2)[nH]c1=O)N1CCOCC1
Label: label 0
//
Molecule: N=C(N)NS(=O)(=O)c1ccc(Nc2c3ccccc3nc3ccc(C(=O)Nc4ccc(S(N)(=O)=O)cc4)cc23)cc1
Label: label 0
//
Molecule: CCOC(=O)C(C)(NC(=O)c1ccc(NCc2ccc3nc(NC(=O)c4ccccc4)nc(NC(=O)c4ccccc4)c3c2)cc1)C(=O)OCC
Label: label 0
//
Molecule: Cn1c2ccccc2n2c3ccccc3c3nnc(N)c-3c12
Label: label 0
//
Molecule: COC1OC(COCc2ccc(Cl)cc2)C(OCc2ccc(Cl)cc2)C1O (stereo unspecified)
Label: label 0
//
Molecule: CCOC(=O)Cc1csc(N/N=C2\C(=O)Nc3ccccc32)n1
Label: label 0
//
Molecule: COc1cccc(N2C(=O)CSC2c2cccc(Oc3ccccc3)c2)c1 (stereo unspecified)
Label: label 0
//
Molecule: O=C1Nc2ccccc2C1(O)C/C(=N/O)c1ccc2ccccc2c1 (stereo unspecified)
Label: label 0
//
Molecule: CSCC[C@H](NC(=O)C(CC(C)C)NC(=O)[C@H](Cc1c[nH]cn1)NC(=O)CNC(=O)[C@@H](NC(=O)[C@@H](C)NC(=O)[C@H](Cc1c[nH]c2ccccc12)NC(=O)[C@H](CCC(N)=O)NC(=O)[C@@H](N)CC(N)=O)C(C)(C)SC)C(N)=O (stereo partly specified) (H-NQW[dA][Pen](Me)GH[ξL]M-NH2)
Label: label 0
//
Molecule: CCOC(=O)C1=NN(c2ccc(Cl)cc2)C2=CC(C)=NN(C)C(=S)N21
Label: label 0

###

test system: NCI-H23; assay: NCI tumour cell line growth inhibition, 48 h
Active and inactive are the calls of the source. No stated cut-off is given here; in the data, active = GI50 up to about 1.1 µM and inactive = higher.
Reported GI50 values for the following compounds.

Compound: c1ccc2c(c1)SCCc1cn[nH]c1-2
GI50: > 100 µM (inactive)
--
Compound: CC(C)(C)OC(=O)N1CC(O)O[C@H](c2ccccc2)[C@@H]1c1ccccc1 (stereo partly drawn)
GI50: 15.9 µM (inactive)
--
Compound: CC1(C)SC2C(NC(=O)C(C(=O)O)c3ccccc3)C(=O)N2C1C(=O)O (stereo not drawn)
GI50: > 100 µM (inactive)

###

test system: LOX IMVI; test: NCI tumour cell line growth inhibition, 48 h
The source made the active and inactive calls. No stated cut-off is given here; in the data, active = GI50 up to about 1.1 µM and inactive = higher.
The entries below come with measured GI50 values attached.

Compound: CN(C)c1nc2n(CCO)c(-c3ccccc3)c(-c3ccccc3)nc-2c(=O)n1
Target Under Test: LOX IMVI
GI50: > 100 µM (inactive)
--
Compound: Nc1ncnc2c1nc(Cl)n2C1OC2COP(=O)(O)OC2C1O (centres undefined)
Target Under Test: LOX IMVI
GI50: 1.19 µM (inactive)
--
Compound: Cc1ccc(N(C)S(=O)(=O)c2ccc([N+](=O)[O-])cc2)cc1
Target Under Test: LOX IMVI
GI50: > 100 µM (inactive)
--
Compound: O=[N+]([O-])c1cc(-c2nnc(C34CC5CC(CC(C5)C3)C4)o2)cc([N+](=O)[O-])c1
Target Under Test: LOX IMVI
GI50: > 100 µM (inactive)
--
Compound: C=C(COC(C)=O)CC(/C=C(\C)CCC=C(C)C)OC(C)=O (centres undefined)
Target Under Test: LOX IMVI
GI50: 32.2 µM (inactive)
--
Compound: CCOC(=O)Cc1csc(N/N=C2\C(=O)Nc3ccccc32)n1
Target Under Test: LOX IMVI
GI50: 48.8 µM (inactive)
--
Compound: CN(C)CCC1(C2=CCCC2)CC/C(=C\c2ccc(Cl)cc2)C1=O (centres undefined)
Target Under Test: LOX IMVI
GI50: 10.1 µM (inactive)
--
Compound: NCCCCC(=O)c1cccnc1
Target Under Test: LOX IMVI
GI50: > 100 µM (inactive)
--
Compound: C=CCc1cccc2cc(C(=O)Nc3ccc(C)cc3)c(=N)oc12
Target Under Test: LOX IMVI
GI50: > 100 µM (inactive)
--
Compound: O=C(O)C(F)(F)C(F)(F)C(F)(F)C(F)(F)C(F)(F)C(F)(F)C(F)(F)C(F)(F)F
Target Under Test: LOX IMVI
GI50: 42.3 µM (inactive)
--
Compound: CCOC(=O)C1(C(F)(F)F)N=C(CC)OC(N2CCOCC2)=N1 (centres undefined)
Target Under Test: LOX IMVI
GI50: > 100 µM (inactive)
--
Compound: Cc1cc(C(=C2C=CC(=N)C=C2)c2ccc(N)cc2)ccc1N
Target Under Test: LOX IMVI
GI50: 2.25 µM (inactive)
--
Compound: COC12OCCN(CCO)C1=CC(=O)C1(C)N=NC(C)C12 (centres undefined)
Target Under Test: LOX IMVI
GI50: > 100 µM (inactive)
--
Compound: Cc1cccc(C)c1NC(=O)Nc1ccc(S(N)(=O)=O)cc1
Target Under Test: LOX IMVI
GI50: > 100 µM (inactive)
